I'd appreciate it if you could supply aptazyme ON/OFF ratio values for the items below.
B1: Pistol ribozyme (parent)
chain: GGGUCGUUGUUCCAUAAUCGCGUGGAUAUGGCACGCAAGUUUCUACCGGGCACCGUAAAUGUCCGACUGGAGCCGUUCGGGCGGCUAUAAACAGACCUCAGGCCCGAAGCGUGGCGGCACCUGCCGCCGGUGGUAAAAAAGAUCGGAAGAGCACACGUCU

Variants of: B1
Experiment: aptazyme ON/OFF ratio, guanine; higher = stronger switching; co-transcriptional cleavage with and without guanine
Number only, please.

Could you share which aptazyme ON/OFF ratio value was measured for U7A U8G U10G C12A C13G ?
1.12

Entry under review: U7C U8A U10A U11G C12A C13A . Reported aptazyme ON/OFF ratio?
1.12

So what's the measured aptazyme ON/OFF ratio for this one? U7A U10C U11G C12A C13A
1.28

What measured aptazyme ON/OFF ratio goes with U7G G9U U11A C12G ?
1.46

Fill in the blank: the reported aptazyme ON/OFF ratio of U7A U8A U10C C13U is ____.
1.98

Item U7A U8G G9U U11C C12A has what recorded aptazyme ON/OFF ratio?
1.23

Need aptazyme ON/OFF ratio of U7A U8A G9C U10C C12U C13A , thanks.
1.02

aptazyme ON/OFF ratio for U7G U8A G9U U10A U11A C13A ?
1.13

Request the reported aptazyme ON/OFF ratio associated with U8A U10G U11G
1.16

Fill in: aptazyme ON/OFF ratio of U7G U8C G9A U10C U11A C13G is ___
1.07

Fill in: aptazyme ON/OFF ratio of U7A U8A G9U U10G U11C C12U C13G is ___
1.22

Could you tell me which aptazyme ON/OFF ratio is on file for U7C U8C G9A U11A C12A ?
1.21

Look up aptazyme ON/OFF ratio for this variant: U7C G9C U10A C12U C13G
1.07

Using the record for U7A U8A G9C U10G U11C C13G , report its aptazyme ON/OFF ratio.
1.04

Suppose we examine the variant U7C U8A G9A U10G U11A ; what aptazyme ON/OFF ratio value has been reported?
1.01

Give its aptazyme ON/OFF ratio value. Item: U7A U8G G9A U10G U11G C13A
1.06

Name the reported aptazyme ON/OFF ratio value associated with the variant U7G U8C U10A U11C C12U
1.03

Given U7G U8G G9C U10G U11C C12U C13A , state its recorded aptazyme ON/OFF ratio.
1.15

What measured aptazyme ON/OFF ratio goes with U8C G9U U10A U11G C12G ?
1.23

Could you tell me which aptazyme ON/OFF ratio is on file for U7G U8A G9A U10G U11A C13U ?
1.03

Any idea what its aptazyme ON/OFF ratio is? The variant is U7A U8A G9U U10G U11A C12U
1.07

Which aptazyme ON/OFF ratio is listed for U7C U8C U10A U11A C12G C13U ?
1.11

What does the record list as aptazyme ON/OFF ratio for U7A U8A G9A U10A C12U C13G ?
1.19

Which aptazyme ON/OFF ratio is listed for U8C G9A U10A U11C C12A C13G ?
1.18

# lookup: aptazyme ON/OFF ratio of U7A U8A G9A U10A U11G C12A C13G
1.24

What measured aptazyme ON/OFF ratio goes with U7C U8G G9U U10C U11G C13U ?
1.19

Request the reported aptazyme ON/OFF ratio associated with U7G U8A U10A U11A C12A C13U
1.08

Would you mind telling me what aptazyme ON/OFF ratio value was observed for U8C U10C U11C C12U ?
1.44

What value of measured aptazyme ON/OFF ratio is listed for U7G G9U U10G C12G C13A ?
1.15

Requested read-out: aptazyme ON/OFF ratio. Entry: U7A U8C U10G C13A
1.4

For the variant U7G G9C U11C C12G C13A , what aptazyme ON/OFF ratio is on record?
1.35

Would you mind telling me what aptazyme ON/OFF ratio value was observed for U7A U8G G9U U10C U11C C12G C13A ?
1.2

Could you share which aptazyme ON/OFF ratio value was measured for U7G U8C G9A U11G C12U ?
1.3

So what does the record say about aptazyme ON/OFF ratio for U7G U8C G9C U10A C12G ?
1.25

Give the measured aptazyme ON/OFF ratio of U8A U10G U11A C12G C13U .
1.15

# get_value(readout='aptazyme ON/OFF ratio', item= U7A U11C C12A C13U )
1.19

# lookup: aptazyme ON/OFF ratio of U7A U8A G9C U10G U11C C12U C13G
1.19

Dear colleague, I am looking for the recorded aptazyme ON/OFF ratio of the following variant: U7G U8A G9U U10A U11G C12A
1.06

Could you tell me which aptazyme ON/OFF ratio is on file for U7G U10A U11G C12A C13U ?
1.11

Form field: reported aptazyme ON/OFF ratio of U7C U8G G9C U10C U11G
1.16

May I ask what aptazyme ON/OFF ratio has been recorded for U7G U8C U10A C12A C13G ?
1.1

Using the record for U7C G9A U11C C12A , report its aptazyme ON/OFF ratio.
1.2

Data provenance: the RNAGym collection of RNA variant scans (doi:10.1021/acssynbio.7b00057)
